# target-of-assay: various mutants of kinase EGFR (BaF3 cell lines stably transfected with kinase) (Homo sapiens, UniProt P00533, C797S/L858R/T790M)
# Construct: expressed in transfected cells; host or cells: BaF3
# Sequence (P00533 25-1210 T790M/C797S/L858R): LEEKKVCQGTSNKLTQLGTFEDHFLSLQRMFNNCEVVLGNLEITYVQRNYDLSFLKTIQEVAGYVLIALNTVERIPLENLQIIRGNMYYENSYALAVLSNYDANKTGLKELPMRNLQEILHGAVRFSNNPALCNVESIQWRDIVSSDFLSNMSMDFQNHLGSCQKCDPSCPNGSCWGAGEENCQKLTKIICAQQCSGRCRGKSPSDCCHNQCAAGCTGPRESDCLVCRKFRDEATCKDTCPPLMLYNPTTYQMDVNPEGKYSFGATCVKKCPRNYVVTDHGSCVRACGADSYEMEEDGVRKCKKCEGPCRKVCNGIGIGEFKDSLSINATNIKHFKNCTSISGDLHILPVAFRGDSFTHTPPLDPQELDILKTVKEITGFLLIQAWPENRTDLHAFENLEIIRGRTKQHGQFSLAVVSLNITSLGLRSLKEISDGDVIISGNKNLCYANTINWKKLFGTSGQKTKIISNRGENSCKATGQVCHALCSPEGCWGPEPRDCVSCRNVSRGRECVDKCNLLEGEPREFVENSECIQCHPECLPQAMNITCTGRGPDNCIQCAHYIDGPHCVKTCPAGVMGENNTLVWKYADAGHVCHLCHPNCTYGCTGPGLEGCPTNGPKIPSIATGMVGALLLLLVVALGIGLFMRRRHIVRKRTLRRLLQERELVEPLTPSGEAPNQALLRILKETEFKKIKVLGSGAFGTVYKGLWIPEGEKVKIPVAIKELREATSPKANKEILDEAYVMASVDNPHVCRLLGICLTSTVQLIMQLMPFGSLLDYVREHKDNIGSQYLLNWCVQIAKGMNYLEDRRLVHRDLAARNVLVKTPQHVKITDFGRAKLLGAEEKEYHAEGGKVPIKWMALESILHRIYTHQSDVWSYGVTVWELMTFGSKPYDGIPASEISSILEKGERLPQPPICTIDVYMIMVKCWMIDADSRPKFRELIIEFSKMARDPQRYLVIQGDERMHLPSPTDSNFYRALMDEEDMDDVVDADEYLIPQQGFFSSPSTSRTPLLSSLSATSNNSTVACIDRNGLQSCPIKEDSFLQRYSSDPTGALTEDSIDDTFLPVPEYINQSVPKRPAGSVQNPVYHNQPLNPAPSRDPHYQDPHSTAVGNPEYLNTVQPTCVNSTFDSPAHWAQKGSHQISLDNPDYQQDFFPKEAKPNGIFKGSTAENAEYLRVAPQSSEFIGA
# assay: Growth inhibitory activity of compounds on BaF3 cell lines stably transfected with kinase (MTS, 48 h)
# Format: cell-based
# experimental-parameters: BaF3 cells stably transfected with EGFR L858R/T790M/C797S, read-out: IC50, growth inhibition, L858R/T790M/C797S
pIC50: −log10 of the molar value.
Field: pIC50. Provide a value for each of the molecules that follow.

Previously resolved entries follow.
- molecule: "CCc1cc(Nc2ncc(Cl)c(Nc3ccc4nccnc4c3N(C)S(=O)(=O)C(F)(F)F)n2)c(OC)nc1N1CCC(N2CCN(C)CC2)CC1"
  pIC50: "6.30 to 7.30"
- molecule: "CCc1cc(Nc2ncc(Br)c(Nc3ccc4nccnc4c3N(CC)S(C)(=O)=O)n2)c(OC(F)(F)F)cc1N1CCC(N2CCN(C)CC2)CC1"
  pIC50: "≥ 7.30"
- molecule: "COc1cc(N2CCC(N(C)C)C2)c(C)cc1Nc1ncc(Br)c(Nc2ccc3nccnc3c2N(C)S(C)(=O)=O)n1 (stereo not drawn)"
  pIC50: "≥ 7.30"

Dear colleague, could you please provide pIC50 for the molecules listed below?
1. COc1cc(N2CCC(N3CCN(C)CC3)CC2)ccc1Nc1ncc(Cl)c(Nc2ccc3nccnc3c2N(C)S(C)(=O)=O)n1
2. CCc1cc(Nc2ncc(Cl)c(Nc3ccc4nccnc4c3N(C)S(C)(=O)=O)n2)c(OC)cc1N1CCC(N2CCN(C)CC2)CC1
3. CCc1cc(Nc2ncc([N+](=O)[O-])c(Nc3ccc4nccnc4c3N(C)S(C)(=O)=O)n2)c(OC)cc1N1CCC(N(C)C)C1 (stereo not drawn)

(A)
1. 6.30 to 7.30
2. ≥ 7.30
3. 6.30 to 7.30

====

# target-of-assay: various mutants of kinase EGFR (BaF3 cell lines stably transfected with kinase) (Homo sapiens, UniProt P00533)
# Construct: other: BaF3 cells stably transfected with EGFR Δ19Del; MTS, 48 h; other: BaF3 cell line stably transfected with EGFR Δ19Del
# Sequence (P00533 with tags, fused parts or gaps DEL746-750): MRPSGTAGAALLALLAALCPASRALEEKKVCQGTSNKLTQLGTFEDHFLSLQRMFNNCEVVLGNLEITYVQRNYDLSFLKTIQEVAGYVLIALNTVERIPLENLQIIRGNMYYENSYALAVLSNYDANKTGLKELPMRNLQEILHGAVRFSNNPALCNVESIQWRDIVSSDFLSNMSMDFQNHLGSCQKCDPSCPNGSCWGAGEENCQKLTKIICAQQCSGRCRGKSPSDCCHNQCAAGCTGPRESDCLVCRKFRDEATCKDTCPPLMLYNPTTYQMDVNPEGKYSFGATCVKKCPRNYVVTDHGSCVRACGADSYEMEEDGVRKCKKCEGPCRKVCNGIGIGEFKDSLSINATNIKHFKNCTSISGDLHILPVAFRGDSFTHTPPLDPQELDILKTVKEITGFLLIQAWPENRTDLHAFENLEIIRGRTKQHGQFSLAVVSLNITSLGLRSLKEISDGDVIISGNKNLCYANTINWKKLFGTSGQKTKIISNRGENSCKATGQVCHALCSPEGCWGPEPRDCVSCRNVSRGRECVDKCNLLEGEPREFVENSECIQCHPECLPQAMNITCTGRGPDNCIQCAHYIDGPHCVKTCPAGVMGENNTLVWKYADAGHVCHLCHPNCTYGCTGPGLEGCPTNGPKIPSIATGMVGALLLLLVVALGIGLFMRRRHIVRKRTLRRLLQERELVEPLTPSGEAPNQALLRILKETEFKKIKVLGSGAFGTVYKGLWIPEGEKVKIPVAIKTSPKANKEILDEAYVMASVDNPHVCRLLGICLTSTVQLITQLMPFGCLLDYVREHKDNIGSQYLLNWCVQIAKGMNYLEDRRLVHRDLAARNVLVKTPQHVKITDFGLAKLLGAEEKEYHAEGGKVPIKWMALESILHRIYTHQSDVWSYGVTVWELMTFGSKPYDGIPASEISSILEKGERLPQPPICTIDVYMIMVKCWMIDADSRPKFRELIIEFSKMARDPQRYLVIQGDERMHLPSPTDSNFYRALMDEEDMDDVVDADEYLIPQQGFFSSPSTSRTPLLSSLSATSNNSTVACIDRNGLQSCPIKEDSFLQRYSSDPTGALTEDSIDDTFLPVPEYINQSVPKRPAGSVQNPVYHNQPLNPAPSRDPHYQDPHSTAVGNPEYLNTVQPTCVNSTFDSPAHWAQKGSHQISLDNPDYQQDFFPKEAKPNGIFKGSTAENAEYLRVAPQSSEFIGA
# assay: Growth inhibitory activity of compounds on BaF3 cell lines stably transfected with kinase (MTS, 48 h)
# Type: cell-based
# experimental-parameters: BaF3 cell line stably transfected with EGFR Δ19Del, read-out: Δ19Del growth inhibitory activity IC50
pIC50: −log10 of the molar value.
reported-metric: pIC50

Previously resolved entries follow.
- compound: "CCc1cc(Nc2ncc(Br)c(Nc3ccc4nccnc4c3N(C)S(C)(=O)=O)n2)c(OC)cc1F"
  experimental-value: "5.60 to 6.30"
- compound: "CCc1cc(Nc2ncc(CC)c(Nc3ccc4nccnc4c3N(C)S(C)(=O)=O)n2)c(OC)cc1N1CCN(C)CC1"
  experimental-value: "≥ 7.30"
- compound: "CCc1cc(Nc2ncc(OC)c(Nc3ccc4nccnc4c3N(C)S(C)(=O)=O)n2)c(OC)nc1N1CCC(N2CCN(C)CC2)CC1"
  experimental-value: "≥ 7.30"
- compound: "CCc1cc(Nc2nc(Nc3ccc4nccnc4c3N(C)S(C)(=O)=O)c3[nH]ccc3n2)c(OC)cc1N1CCN(C)CC1"
  experimental-value: "5.60 to 6.30"
- compound: "COc1nc(N2CCC(N3CCN(C)CC3)CC2)ccc1Nc1nc(Nc2ccc3nccnc3c2N(C)S(C)(=O)=O)c2sccc2n1"
  experimental-value: "5.60 to 6.30"
- compound: "COc1cc(N2CCC(N3CCN(C)CC3)CC2)c(C(C)C)cc1Nc1ncc(Br)c(Nc2ccc3nccnc3c2NS(C)(=O)=O)n1"
  experimental-value: "6.30 to 7.30"

Query compound follows.
(Q) Given the compound CCc1cc(Nc2ncc(Br)c(Nc3ccc4nccnc4c3NS(C)(=O)=O)n2)c(OC)cc1N1CCC(N(C)C)C1 (stereo not shown) , what is its reported pIC50?
(A) ≥ 7.30
